TEST_TARGET: 20S core particle (CP) proteasome
TEST_SUMMARY: cell-based or functional assay
Non-standard residues stand in square brackets, D forms with d. dPra = C#CC[C@@H](N)C(=O)O; dDap = NC[C@@H](N)C(=O)O
RESULT_TYPE: Emax, dose-response of 20S CP stimulation

Known Emax, dose-response of 20S CP stimulation results, listed for orientation:
cyclo(T[dL]F[dF]R[dDap]) (SMILES CC(C)C[C@H]1NC(=O)[C@H]([C@@H](C)O)NC(=O)[C@@H](CN)NC(=O)[C@H](CCCNC(=N)N)NC(=O)[C@@H](Cc2ccccc2)NC(=O)[C@H](Cc2ccccc2)NC1=O) [CyPPS23] : 391
cyclo(T[dPra]F[dF]R[dA]) (SMILES C#CC[C@H]1NC(=O)[C@H]([C@@H](C)O)NC(=O)[C@@H](C)NC(=O)[C@H](CCCNC(=N)N)NC(=O)[C@@H](Cc2ccccc2)NC(=O)[C@H](Cc2ccccc2)NC1=O) [CyPPS14] : 514
cyclo(T[dL]F[dF]R[dA]) (SMILES CC(C)C[C@H]1NC(=O)[C@H]([C@@H](C)O)NC(=O)[C@@H](C)NC(=O)[C@H](CCCNC(=N)N)NC(=O)[C@@H](Cc2ccccc2)NC(=O)[C@H](Cc2ccccc2)NC1=O) [CyPPS1] : 283

(I) cyclo(T[dV]F[dF]R[dA]) (SMILES CC(C)[C@H]1NC(=O)[C@H]([C@@H](C)O)NC(=O)[C@@H](C)NC(=O)[C@H](CCCNC(=N)N)NC(=O)[C@@H](Cc2ccccc2)NC(=O)[C@H](Cc2ccccc2)NC1=O) [CyPPS13]
(II) cyclo(D[dL]F[dF]R[dA]) (SMILES CC(C)C[C@H]1NC(=O)[C@H](CC(=O)O)NC(=O)[C@@H](C)NC(=O)[C@H](CCCNC(=N)N)NC(=O)[C@@H](Cc2ccccc2)NC(=O)[C@H](Cc2ccccc2)NC1=O) [CyPPS8]
Challenge: Which of the two gives a bigger number for Emax, dose-response of 20S CP stimulation: I or II ? Kindly give the label for the entry you pick.
Response given: II
